Origin of measurements: PubChem BioAssay (NCI)

- System: HOP-62 NSCLC
- Experiment description: NCI tumour cell line growth inhibition, 48 h
Entries annotated with measured TGI

Look over these answered cases.
INSERT INTO assay_data (compound, test_readout, result) VALUES
  ('Cc1ccnc2c1c(=O)c1ccccc1n2C', 'TGI', '> 100 µM'),
  ('COc1ccc(/C=N/n2c(C)n[nH]c2=O)cc1', 'TGI', '> 100 µM');

Query: Look at this compound and give its reported TGI. COc1ncc(C#CC(=O)c2ccccc2OC)c(OC)n1
Response: 40.5 µM

Query: Given the entry O=C(O)c1ccc([N+](=O)[O-])c2c(=O)c3ccccc3[nH]c12 , report its measured TGI.
Response: > 100 µM

Query: Which TGI is listed for CC1=NN(C(=O)CC(=O)Nc2cccc(Cl)c2)C(=O)C1N=Nc1ccc(S(=O)(=O)c2ccc(N=NC3C(=O)N(C(=O)CC(=O)Nc4cccc(Cl)c4)N=C3C)cc2)cc1 (stereo unspecified) ?
Response: > 100 µM

Query: Any idea what TGI was measured for CCCCC(=O)[O-].N.N.N.N.N.[Co+3].[O-][Cl+3]([O-])([O-])[O-] ?
Response: > 100 µM
